System Under Test: Escherichia coli MurA (Escherichia coli, UniProt P0A749)
Construct: made in house; host or cells: E. coli
Sequence (P0A749 whole entry): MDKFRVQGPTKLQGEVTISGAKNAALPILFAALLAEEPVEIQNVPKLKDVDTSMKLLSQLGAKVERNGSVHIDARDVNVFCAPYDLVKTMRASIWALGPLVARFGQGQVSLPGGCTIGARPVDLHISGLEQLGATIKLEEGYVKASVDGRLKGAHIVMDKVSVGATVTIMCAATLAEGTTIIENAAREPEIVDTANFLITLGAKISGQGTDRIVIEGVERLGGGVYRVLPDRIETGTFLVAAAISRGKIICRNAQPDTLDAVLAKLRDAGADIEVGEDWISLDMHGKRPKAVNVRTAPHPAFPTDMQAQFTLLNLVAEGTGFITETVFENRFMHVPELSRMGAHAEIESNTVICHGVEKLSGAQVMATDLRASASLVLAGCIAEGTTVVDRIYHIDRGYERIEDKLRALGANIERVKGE
Test Summary: MurA inhibition, colorimetric malachite green method
Format: biochemical
Measurement Setup: IC50 Escherichia coli MurA, time of preincubation = 0 min
Reported Property: pIC50
Would you please state pIC50, meaning minus log10 of the concentration in mol/L, as a bare number?

input: What does the data say about its pIC50? Entry: COC(=O)[C@]12CCCC(C)(C)[C@@H]1CCc1cc(C(C)C)c(O)c(O)c12 [Compound 4, 20-methyl carnosate]
output: 4.32

* * *

Recorded remaining activity at 100 µM values for a group of compounds are listed next.
System Under Test: Staphylococcus aureus MurA (Staphylococcus aureus)
Construct: made in house; host or cells: E. coli
Sequence (Q931H5 1-421): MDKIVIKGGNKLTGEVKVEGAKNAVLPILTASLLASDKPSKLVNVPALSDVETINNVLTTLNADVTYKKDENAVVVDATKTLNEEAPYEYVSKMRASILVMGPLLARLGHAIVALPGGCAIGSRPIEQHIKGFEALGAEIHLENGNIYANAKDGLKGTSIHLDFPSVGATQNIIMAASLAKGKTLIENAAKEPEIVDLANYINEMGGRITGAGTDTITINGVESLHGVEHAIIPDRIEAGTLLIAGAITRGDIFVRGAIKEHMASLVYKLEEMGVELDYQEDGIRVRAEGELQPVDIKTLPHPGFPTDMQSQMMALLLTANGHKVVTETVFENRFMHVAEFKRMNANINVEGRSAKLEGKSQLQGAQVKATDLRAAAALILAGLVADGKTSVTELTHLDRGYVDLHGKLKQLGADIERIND
Test Summary: biochemical
Measurement Setup: 10 min, residual activity at 100 µM; time of preincubation: 10 min; read-out: RA % Staphylococcus aureus MurA

Below, 3 compounds whose answers are already recorded.
> print(dat)
                                   compound             reported.property  value.measured
1  COC(=O)[C@]1(C)CCC[C@]2(C)c3cc(O)c(/C(C)=N/O)cc3/C(=N/O)C[C@@H]12  remaining activity at 100 µM      72 to 100%
2  CC/C(=N\O)c1cc2c(cc1O)[C@@]1(C)CCC[C@@](C)(C(=O)OC)[C@@H]1CC2  remaining activity at 100 µM      72 to 100%
3  C[C@@H]1O[C@@H]1P(=O)(O)O [fosfomycin, reference compound]  remaining activity at 100 µM              0%

Moving on to the next compound.
input: Return remaining activity at 100 µM measured with Staphylococcus aureus MurA (Staphylococcus aureus) given this compound: COC(=O)[C@]1(C)CCC[C@]2(C)c3cc(O)c(/C(C)=N/O)cc3CC[C@@H]12
output: 72 to 100%
